Tested Target: PD-1 expressed on cells (human, UniProt Q15116 25-288)
Sequence (Q15116 25-288 limits assumed): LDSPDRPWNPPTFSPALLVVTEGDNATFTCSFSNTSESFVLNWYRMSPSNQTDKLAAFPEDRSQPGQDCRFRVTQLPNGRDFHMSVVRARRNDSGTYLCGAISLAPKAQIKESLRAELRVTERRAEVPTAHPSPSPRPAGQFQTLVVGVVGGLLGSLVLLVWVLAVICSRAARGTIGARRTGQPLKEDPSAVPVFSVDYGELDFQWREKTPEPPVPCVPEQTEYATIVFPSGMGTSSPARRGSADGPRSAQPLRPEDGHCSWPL
Assay Info: cell-based or functional assay
Assay Metric: PD-1/PD-L1 blockage (IC50, µg/ml) (µg/mL)
State the answer as a number, implicitly in µg/mL.

Record request: PD-1/PD-L1 blockage (IC50, µg/ml) value, item A1 (antibody, V domains shown, Tested as full-length mAb expressed in CHO cells; also called antibody A1; L1H1) VH: QVQLVESGGGVVQPGRSLRLSCAASGFTFSNYGMHWVRQAPGKGLEWVAVIWYDGSNKYYTDSVKGRFTISRDNSKNTLYLQMNSLRAEDTAVYYCAGGGNYYGDYWGQGTLVTVSS VL: DIQMTQSPSSLSASVGDRVTITCRASQGIRNDLGWYQQKPGKAPKRLIYVASSLQSGVPSRFSGSGSGTEFTLTISSLQPEDFATYYCLQHNSYPLTFGGGTKVEIKR
2.39

Further, for A28 (antibody, V domains shown, Tested as full-length mAb expressed in CHO cells; also called antibody 28; L28H28) VH: QVQLVESGGGLVKPGGSLKLSCAASGFTFSDYGMHWVRQAPEKGLEWVAYISSGSFAIYYADTVRGRFTISRDSAKNTLFLQMTSLRSEDTAMYYCARRGPYPYYYSMDYWGQGTSVTVSS VL: AIQMTQSPSSLSASVGDRVTITCRASQGISSALAWYQQKPGKAPKLLIYAASTLQSGVPSRFSGSGSGTDFTLTISSLQPEDFATYYCLQDYNYPWTFGQGTKVEIK ?
0.542

Further, for A9 (antibody, V domains shown, Tested as full-length mAb expressed in CHO cells; also called antibody A9; L9H9) VH: QVQLVESGGGVVQPGRSLRLSCAASGFTFSNYGMHWVRQAPGKGLEWVAVIWYDGTNKFYADSVKGRFTISRDNSKNTLYLQMNSLRAEDTAVYYCATNSDDYWGQGTLVTVSS VL: AIQMTQSPSSLSASVGDRVTITCRASQDIRNDLGWYQQKPGKAPKLLIYAASLLRSGVPSRFSGSGSGTDFTLTISSLQPEDFATYYCLQDNNYPRTFGQGTKVEIK ?
0.461
